// data source = PubChem BioAssay (NCI)

System: M14 melanoma
ASSAY EXPLANATION: NCI tumour cell line growth inhibition, 48 h; in the data active = GI50 below about 0.43 µM; inactive = the rest
Please reply with one of these outcomes: T (active), F (inactive)

Worked cases, answers included:
C[C@@H]1N=C(c2ccc(Br)cc2)Nc2nc3ccccn3c2C1=O :: F
NC1CCCCC1N.O=S(=O)([O-])CCCN1CCOCC1.O=S(=O)([O-])CCCN1CCOCC1.[Pt+4] :: F
COc1cc2c(cc1OCCCCCCN1CCN(c3ncnc4ccccc34)CC1)N=CC1CCCN1C2=O (stereo not given) :: T
COc1ccc(-c2nc3ncccn3c2/C=C/C(=O)c2cc(OC)c(OC)c(OC)c2)cc1 :: F

Consider the record given below.
Hi, sorry to bother you, what did the test record for CCOc1ccc(Nc2nc(-c3ccc4c(c3)NC(=O)CO4)cs2)cc1 ? F

* * *

Tested on: HOP-62 NSCLC
ASSAY EXPLANATION: NCI tumour cell line growth inhibition, 48 h; in the data active means GI50 below about 0.43 µM; inactive means the rest
Please reply with one of these outcomes: 1.0 for active, 0.0 for inactive

Worked cases, answers included:
NC(=N\N=C/c1cccc([N+](=O)[O-])c1)/C(N)=N\N=C/c1cccc([N+](=O)[O-])c1 :: 0.0
O=C(CC12CC3CC(CC(C3)C1)C2)NCCOCCOCCOCCNC(=O)c1cc2c(o1)C(=O)c1ccccc1C2=O :: 0.0
COc1cc2cc(C(=O)Nc3cc(N)c4ccccc4c3CCCl)[nH]c2c(OC)c1OC :: 1.0
COC(=O)c1c2c(c(C)[n+]([O-])c1C)C(=O)C=C(NCc1ccc(OC)cc1)C2=O :: 0.0

Hi, sorry to bother you, what did the test record for Cc1cc(I)cc(CN(C)CCN2CCCC2)c1O ? 0.0

* * *

// values below are reported GI50
Tested on: NCI-H460 lung

Past entries and their recorded results:
O=C(Nc1ccc(F)cc1F)c1cc(Br)ccc1O :: 2.9 µM
CCOc1ccc(Nc2nc(-c3ccc4c(c3)NC(=O)CO4)cs2)cc1 :: 4.37 µM
Cc1cc(I)cc(CN(C)CCN2CCCC2)c1O :: 28.3 µM

Under NCI-H460 lung, report GI50 for O=c1[nH]ccc2nc(N3CCC(O)CC3)nc(Nc3cccc(C(F)(F)F)c3)c12 1.62 µM

* * *

Tested on: HCT-116 colon
ASSAY EXPLANATION: NCI tumour cell line growth inhibition, 48 h; in the data active means GI50 below about 0.43 µM; inactive means the rest
Where a SMILES comes first, the peptide text is derived from it. [ ]: non-standard residue; d: D form. The star is where a group is joined. ξ: configuration not given here. NMeN = CN[C@@H](CC(N)=O)C(=O)O; NMeV = CN[C@H](C(=O)O)C(C)C; ξNMeV = CNC(C(=O)O)C(C)C; Boc = CC(C)(C)OC(=O)*; ξNMeA = CNC(C)C(=O)O
Please reply with one of these outcomes: True (active), False (inactive)

Worked cases, answers included:
C=C[C@H]1CCC/C=C/[C@@H]2C[C@H](O)C[C@H]2[C@H](O)/C=C/C(=O)O1 :: True
COc1c(Cl)c2c(c(OC)c1OC)-c1ccc(SC)c(=O)cc1[C@@H](NC(=O)OCC(F)(F)F)CC2 :: True
COc1ccc(CNc2c3ccccc3nc3ccc(OC)cc23)cc1 :: False
Cc1cc(I)cc(CN(C)CCN2CCCC2)c1O :: False
Cc1cc(N2CCCC2)nc(NC2CCCC(Nc3ccnc4cc(Cl)ccc34)C2)n1 (stereo not drawn) :: False
CCC[CH2][Sn]([CH2]CCC)([O]C(=O)C(N)CSC)[O]C(=O)C(N)CSC (stereo not drawn) :: False
CC1(C)CC(n2cnc(-c3ccc(F)cc3)c2-c2ccnc(N)n2)CC(C)(C)N1 :: False
c1cc(OCCN2CCCCC2)ccc1CNc1ccc2nc(CCC3CCCCC3)[nH]c2c1 :: False

Hi, sorry to bother you, what did the test record for NC1CCCCC1N.O=S(=O)([O-])CCCN1CCOCC1.O=S(=O)([O-])CCCN1CCOCC1.[Pt+4] ? False

Hi, sorry to bother you, what did the test record for O=CN1N=C(c2ccc(Cl)cc2)CC1c1cccc(Nc2ccnc3cc(Cl)ccc23)c1 (stereo not drawn) ? False

Hi, sorry to bother you, what did the test record for CC[Si](CC)(CC)OC[C@]1([C@@H]2COC(C)(C)O2)CC=CC(=O)O1 ? False

Hi, sorry to bother you, what did the test record for COC(=O)C(C)N(C)C(=O)[C@H](CC(N)=O)N(C)C(=O)[C@@H]1CCCN1C(=O)[C@H](C(C)C)N(C)C(=O)C(C(C)C)N(C)C(=O)[C@@H](NC(=O)OC(C)(C)C)C(C)C (stereo partly drawn) (Boc-V[ξNMeV][NMeV]P[NMeN][ξNMeA]-OMe) ? False

Hi, sorry to bother you, what did the test record for CCOc1ccc(Nc2nc(-c3ccc4c(c3)NC(=O)CO4)cs2)cc1 ? False
